Source of measurements: the supplement of paper PMC7877785

Assay Name: self-splicing fitness, log relative to wild type (ln ratio); higher = more splicing; Tetrahymena group I intron in knt gene, E. coli kanamycin selection, DiMSum; sequences stand for … in CUCUCU…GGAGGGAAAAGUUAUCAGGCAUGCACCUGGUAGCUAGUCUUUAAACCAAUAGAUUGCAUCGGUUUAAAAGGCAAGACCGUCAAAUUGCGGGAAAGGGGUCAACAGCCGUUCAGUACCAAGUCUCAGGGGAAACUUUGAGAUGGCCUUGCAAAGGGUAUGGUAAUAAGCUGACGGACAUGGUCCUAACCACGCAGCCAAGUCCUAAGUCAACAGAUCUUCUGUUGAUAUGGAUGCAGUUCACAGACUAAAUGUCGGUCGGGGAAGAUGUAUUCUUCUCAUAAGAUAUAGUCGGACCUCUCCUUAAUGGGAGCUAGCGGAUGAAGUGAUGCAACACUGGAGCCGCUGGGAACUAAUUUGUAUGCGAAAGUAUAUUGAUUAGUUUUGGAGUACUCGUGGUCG;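 also: selection with 25 µg/mL kanamycin versus none on LB agar overnight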
Study Conditions: 37 °C
Readout Type: self-splicing fitness (ln)

> print(dat)
       polymer.sequence  observed
1  CCUAAGCAAUAUUACGCACG     -1.46
2  AAAGAGCAAUAUUACGCUUG     -1.19
3  AAAAAGCAAUAUUACGUAUU     -1.39
4  CACCAGCAAUAUUACGUCCG      0.19
5  UUAUAGCAAUAUUACGUCUA    -0.336
6  AGGGAGCAAUAUUACGCUGG     -1.67
7  GCUUAGCAAUAUUACGAUUA     -1.03
8  CUCCAGCAAUAUUACGACGU     -2.01
